experiment: soluble on expression in E. coli; label from the status in PepcDB or PDB records

CHAIN SEQUENCE: MGSDKIHHHHHHMKVTVTTLELKDKITIASKALAKKSVKPILAGFLFEVKDGNFYICATDLETGVKATVNAAEISGEARFVVPGDVIQKMVKVLPDEITELSLEGDALVISSGSTVFRITTMPADEFPEITPAESGITFEVDTSLLEEMVEKVIFAAAKDEFMRNLNGVFWELHKNLLRLVASDGFRLALAEEQIENEEEASFLLSLKSMKEVQNVLDNTTEPTITVRYDGRRVSLSTNDVETVMRVVDAEFPDYKRVIPETFKTKVVVSRKELRESLKRVMVIASKGSESVKFEIEENVMRLVSKSPDYGEVVDEVEVQKEGEDLVIAFNPKFIEDVLKHIETEEIEMNFVDSTSPCQINPLDISGYLYIVMPIRLA
soluble on expression in E. coli: soluble

CHAIN SEQUENCE: MSLAEYKHILVGVDGSRQAKRALDKAIAVALRNQAELIIVTIMSGGDYVGLGNNTQVGFGYVDQQVMDESRQALEALVDQYRQKAQEAGVERVVTSVFYGHAKVDLAKSLPKEYQADLIMLGATGVNVVERMLLGSTASYVVANAVCDVLVVRTDLHNEGHHHHHH
soluble on expression in E. coli: soluble

CHAIN SEQUENCE: MTSFTIPGLSDKKASDVADLLQKQLSTYNDLHLTLKHVHWNVVGPNFIGVHEMIDPQVELVRGYADEVAERIATLGKSPKGTPGAIIKDRTWDDYSVERDTVQAHLAALDLVYNGVIEDTRKSIEKLEDLDLVSQDLLIAHAGELEKFQWFVRAHLESAGGQLTHEGQSTEKGAADKARRKSA
soluble on expression in E. coli: soluble

* * *

experiment: soluble on expression in E. coli; label from the status in PepcDB or PDB records

CHAIN SEQUENCE: MGSDKIHHHHHHMIRGLRQIEPYVAGVQPAERKMIKLNTNENAYGASPKVREALANFDVDNLRKYSTLEQADLRAALANNLKVKPEQLMIANGSDDVLSIAFLAFFNNDEPVLFPDLTYGFYKVWADLYRVNYHEIPLAEDFTINTEDYLADNGGIILTNPNAPTGIYKPLNEIEKLLKANQDTVVIIDEAYISFGGQSALSLLNKYNNLVITRTFSKDAALAGLRVGYAIANEPLIAVMNAVKHSINPYSVDLLAERLATAAVEDWSYYQENAKKIQKTRAWFSEQLVKQGFDVLPSQANFVLTKPHDLATAKLFEELEARKIYVRYFPKVERIKDYLRISMGTQEEMEEVVKAIEEIRG
soluble on expression in E. coli: not soluble
//
CHAIN SEQUENCE: GPQMLSANERLKNNFNILYNQIRQYPAYYFKVASNVPTYSDICQSFSVMYQGFQIVNHSGDVFIHACRENPQSKGDFVGDKFHISIAREQVPLAFQILSGLLFSEDSPIDKWKITDMNRVSQQSRVGIGAQFTLYVKSDQECSQYSALLLHKIRQFIMCLESNLLRSKIAPGEYPASDVRPEDWKYVSYRNELRSDRDGSERQEQMLREEPFYRLMIE
soluble on expression in E. coli: soluble
//
CHAIN SEQUENCE: MAKQELSAREAVTEAKCYLNNAKEILREKGAKTEGYYRDSKYVKMAGDTAYSGVLFVLDHYFGEKAKGRKDVDWYRINLSKEDRKMLDSFTAVYEQLHL
soluble on expression in E. coli: not soluble
//
CHAIN SEQUENCE: MINEIKKDAQERMDKSVEALKNNLSKVRTGRAHPSLLSGISVEYYGAATPLNQVANVVAEDARTLAITVFDKELTQKVEKAIMMSDLGLNPMSAGTIIRVPLPPLTEERRKDLVKIVRGEAEGGRVAVRNIRRDANNDLKALLKDKEISEDEDRKAQEEIQKLTDVAVKKIDEVLAAKEKELMEV
soluble on expression in E. coli: soluble
//
CHAIN SEQUENCE: SLQKFNQIHSLFEHLPANYGEFSDFEQKIATLAQEMKVDLSLYEIDHLSIRVNTEDKAKSWLTTLLNYGKILSNNLVNGRAIYLIELEQPLLFMGQRVFIIELPFPKNKHYPVESWEHIEFVIPFLPNESSIEWVERVQQQFLWNQSGNLTIKVDEPKVDGEQLPNPSIAVSFADKSQNHVCIKVHPFNIKNIIKVSEG
soluble on expression in E. coli: soluble
//
CHAIN SEQUENCE: MVATEKKFVLTHIFKNVSKMKDSDFLYSPEENLFNVPWFMLIARKDDHFGVFLHCQKINEAGPTWSVDTQNTIRVKTLSASKVSSEIFKHKFEKNEGWGYFKFISWDTLTNDYLIDDCIIVEITVKITKMTGIPKKVLRSFDKSAEEFSDVVLEVGGKKFYVLKKFLASHSTYFNALLLGKPEMSEVTIQDTSSVDFQNLLEVLYGEPAIDEDTIDGILTLAHKFTMPLPIQKCEEFLIEKSEKSVKEKLKLVKKYQLKSLKTHCLSKINTPYGINALMPFDHNDMDPEVVMALLKKSLATDEFYLDCIMRFTVICLIFITVGLII
soluble on expression in E. coli: not soluble

* * *

assay: soluble on expression in E. coli; label from the status in PepcDB or PDB records

CHAIN SEQUENCE: NQHLTILRNVSDRKRMEKELRESELKFRKVFNGSMDGNVLFDNQYRIIDANPLASHILGLSHEEIKQHSLLDIISAYEIENLASPARQINFDEMDNEIPFLLSSGDNRKLEFSFKRNIIQ
soluble on expression in E. coli: not soluble

CHAIN SEQUENCE: MQLEIKGKTHNVKFGTRFVAEMDKNHIAERQGFKFGAGLQSSVPFLIDHSVVTLAEVIYTGTITEPPRPSLNDIYDYIDEVEDIEKLFDDVLDELRQSNASKLFMAQVEKDLAEAKA
soluble on expression in E. coli: not soluble

CHAIN SEQUENCE: RRNALELEVFAGQEKSELSMIEVARAILELRGRDHEMHFSDLVNEIQNYLGTSNSDIREALPLFYTELNFDGSFISLGDNKWGLRSWYGVDEIDEEIIALEENDDDEVAPKAKKKRVNAFMDGDSDAIDYNADDPEDEDAYEADPALSYDDENPDDEKNEVEAYDAEINEIAPDDLGEDVDLNEDDDEFSDDDAET
soluble on expression in E. coli: not soluble

CHAIN SEQUENCE: MSLRYTNSHLEDWIENLYKKIDITEPEQINFERIAEALDIRLSFKPVTSFALKHSGIYNICLDSRKSRTEQWYDFAHEFCHIYRHEGDKKTMPATWTDYLDWQSNYFTYHFCIPTCMLRNINLPYIQSHAIENVAWLFKVSPSFAKKRLSIYYRKLTQHLFSQTVTGNLCPPFLEGHHHHHH
soluble on expression in E. coli: not soluble

CHAIN SEQUENCE: MKNLVEEKEAFRFGVSGDIGSFSEEAALLYARKKGLNAHLVHLLDMEGVLNAIENETIDLGILPVVNLLGGLVKPAFQAMGKYSFTPIDEIWHDINQCLLVKTNTQNHKITHIVSHPQGFAQCKKFLRNKFKNAKKIEWIDTAKAAKDLAEGILPPHAAVIASARCAPLYDLKISARNIQDSHLNRTAFILVKKLEHHHHHH
soluble on expression in E. coli: not soluble

CHAIN SEQUENCE: GVSETAPASRRGELAVCDAVSGWVTDRRTAVDLRGREVEVLGEVPAAGGSPLRQYFFETRCKADNAEEGGPGAGGGGCRGVDRRHWVSECKAKQSYVRALTADAQGRVGWRWIRIDTACVCTLLSRTGRA
soluble on expression in E. coli: soluble

CHAIN SEQUENCE: MCGRFVLFTTDESLLGHPALRIFHSIHAPKGMPPARYNIAPTTIIPILRVGTTPTEAVIEPARWGLIPAWKREVTLPPLFNARAETVTTKPSFRQAFSTQRCAIPMDGYYEWHNKKPYWITTGAPTWVAGLWDSGAGMLSATMITTDSVAPLDWLHHRMPRFLNNDELAVWLRGSADEASGLLTPGDASAFHTSLADPSVGNIRNDYPELIDAPTDLFSLLEHHHHHH
soluble on expression in E. coli: soluble

* * *

assay: soluble on expression in E. coli; label from the status in PepcDB or PDB records
REPORTED METRIC: soluble on expression in E. coli

CHAIN SEQUENCE: MGSDKIHHHHHHMLSRTADHLFWMSRYTERAENTARMLNVSYETSLLPQSADVAQESWLGLLSISELIPAYTARHGEVTREGVLEFMVRDGDNPSSILSCLRAARENARAVRGALTTEIWETQNQTWLELHRQLQGRDFERDPGAFFEWVKYRSHLSRGVTLGTMLQDEAFHFLRLGTFLERADNTARLLDVKFHAVQSDFHGSAMRERGRAAPQEFDFYHWSAILRSVSAFEVYRKVYRDVITPERVADLLMLRADMPRSLHASLREVADNLAVVANDQSAETQRKAGRLLADLRYGRIDEILATGLHAYLTQFLDRVNDLGAGISRDFLVPVPA
RESULT: not soluble

CHAIN SEQUENCE: AGIVNQVTAKNITADLQGGYPWSESNPLLLSDVSVDVLGGQIIMKQLRMPQHDPALLRVQNISSSELISAINPKQFAMSGPVSGALPLWLNNEKWIIKDGWLTNPGPMTLRIDKDTADAVVKDNVTAGSAINWLRYMEITHSWTKINVDNLGVLTMQAAITGKSRVDGKTAIVNLNYTHEENVFTLWRSLRFGDNLQAWLEQNTALPQPP
RESULT: not soluble

Numbers sourced from the DeepSol protein solubility set.
